B1: Cold shock protein CspB, P41016 (parent)
chain: MQRGKVKWFNNEKGYGFIEVEGGSDVFVHFTAIQGEGFKTLEEGQEVSFEIVQGNRGPQAANVVKL

- Variants of: B1
- Test Parameters: Bacillus caldolyticus; pH 7; 75 °C; Thermal; CD; Na cacodylate/HCl 0.1 M; reversible: Yes; structure 1C9O; whole UniProt chain shown
Kindly state ddG of mutation (higher = less stable) for each of the entries shown.
# number only, unit kcal/mol dropped from output

Note down ddG of mutation (higher = less stable) recorded for R56E
-0.76

Note down ddG of mutation (higher = less stable) recorded for E36K
0.19

Note down ddG of mutation (higher = less stable) recorded for E50K
0.5

Note down ddG of mutation (higher = less stable) recorded for N55K
-0.1

Note down ddG of mutation (higher = less stable) recorded for E21K
0.26

Note down ddG of mutation (higher = less stable) recorded for E12K
0.43
